- study-system: human CYP2C9 (Homo sapiens, UniProt P11712)
- Sequence (P11712 whole entry): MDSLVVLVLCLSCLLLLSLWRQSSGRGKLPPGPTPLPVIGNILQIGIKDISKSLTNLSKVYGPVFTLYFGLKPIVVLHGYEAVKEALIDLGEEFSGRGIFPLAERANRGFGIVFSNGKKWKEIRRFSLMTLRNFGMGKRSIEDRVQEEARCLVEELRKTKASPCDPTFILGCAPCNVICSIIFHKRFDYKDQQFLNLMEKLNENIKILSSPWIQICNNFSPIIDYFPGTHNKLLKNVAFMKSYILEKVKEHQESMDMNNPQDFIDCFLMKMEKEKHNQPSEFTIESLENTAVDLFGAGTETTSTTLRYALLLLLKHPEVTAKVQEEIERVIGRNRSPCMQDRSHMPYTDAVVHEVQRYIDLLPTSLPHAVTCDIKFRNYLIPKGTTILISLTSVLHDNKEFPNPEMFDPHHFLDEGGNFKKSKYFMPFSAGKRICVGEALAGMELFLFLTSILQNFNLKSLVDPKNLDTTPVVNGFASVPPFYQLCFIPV
- assay-comment: biochemical
- assay-context: CYP2C9 AC50 (half-maximal activity concentration)
quantity-name: AC50 (µM)
Answers are plain numbers, in µM.

Before answering, review these 8 worked examples.
molecule	unit-of-measurement	AC50
NS(=O)(=O)c1ccc(Cl)c(S(N)(=O)=O)c1 [Clofenamide]	µM	19.8
CC=CC(=O)N(CC)c1ccccc1C (mixture of isomers)	µM	40.1
Oc1cc(Cl)c(Cl)cc1Cl	µM	22.4
O=C(O)Cc1sc(-c2ccccc2)nc1-c1ccc(Cl)cc1	µM	6.24
CCCC(CCC)C(=O)O	µM	47.3
Oc1cc(Cl)ccc1Cl	µM	32.8
IC(I)=C(I)I	µM	3.57
O=C(O)c1cc(I)cc(I)c1I	µM	20.9

I have 2 molecules here; please give me AC50 for each one.
1. O=C(O)C(F)(F)C(F)(F)C(F)(F)C(F)(F)C(F)(F)C(F)(F)F
2. O=C1C=CC(=O)N1c1ccc(Cc2ccc(N3C(=O)C=CC3=O)cc2)cc1 [Bismaleimide]

# output
[6.33, 4.93]

---

CYP2C9 Efficacy (in parenthesis), human CYP2C9 (Homo sapiens, UniProt P11712): measured values

compound	study-system	CYP2C9 Efficacy (in parenthesis)
CCC(OC(C)=O)C(CC(C)NC)(c1ccccc1)c1ccccc1.Cl (stereo not shown)	human CYP2C9 (Homo sapiens, UniProt P11712)	63.02 ± 38.37 (-35 ± 6) %
CCCCCCCCCCCCCC[P+](CCCC)(CCCC)CCCC.CCCCCCCCCCCCc1ccc(S(=O)(=O)[O-])cc1	human CYP2C9 (Homo sapiens, UniProt P11712)	15.74 ± 3.82 (-84 ± 8) %

I have 3 compounds here; please give me CYP2C9 Efficacy (in parenthesis) for each one.
1. CCCCCCCCCCCCCCCCn1cc[n+](C)c1.[Cl-] [1-Hexadecyl-3-methylimidazolium chloride]
2. O=C(Nc1ccccc1SSc1ccccc1NC(=O)c1ccccc1)c1ccccc1 [2,2'-Dibenzoylaminodiphenyl disulfide]
3. CC(=O)O.CC(C)c1ccc2c(c1)CC[C@H]1[C@](C)(CN)CCC[C@]21C [Dehydroabietylamine acetate]

# output
1. 55.36 ± 23.27 (-121 ± 6) %
2. 0.57 ± 0.07 (-99 ± 3) %
3. 42.19 ± 26.12 (-70 ± 20) %

I have 5 compounds here; please give me CYP2C9 Efficacy (in parenthesis) for each one.
1. CC(C)(C)c1cc(CCC(=O)NN)cc(C(C)(C)C)c1O
2. CC(=O)[O-].CC(=O)[O-].[Hg+2] [Mercury(II) acetate]
3. C=CCc1cc(S(=O)(=O)c2ccc(O)c(CC=C)c2)ccc1O
4. Oc1cc2ccccc2c2ccccc12
5. O=C(NCc1cccnc1)Nc1ccc([N+](=O)[O-])cc1

# output
["5.92 ± 1.06 (-98 ± 3) %", "0.5 ± 0.06 (-104 ± 2) %", "0.4 ± 0.13 (-67 ± 11) %", "4.41 ± 1.07 (-106 ± 2) %", "5.43 ± 0.35 (-105 ± 9) %"]

---

AC50, UniProtKB P11712: measured values
One number for each entry, in µM.

Before answering, review these 3 worked examples.
molecule	unit-of-measurement	AC50
CCCCN1C(=O)c2ccccc2C1=O [2-Butyl-1H-isoindole-1,3(2H)-dione]	µM	50.6
COC(=O)Cc1cccc2ccccc12 [Methyl 1-naphthaleneacetate]	µM	41.9
CN(C)C1CSSSC1.O=C(O)C(=O)O [Thiocyclam oxalate]	µM	28.3

I have 2 molecules here; please give me AC50 for each one.
1. O=S(=O)(O)c1cc(Cl)c(Cl)cc1Cl [2,4,5-Trichlorobenzenesulfonic acid]
2. CC(C)(C)c1ccc(OP(=O)(Oc2ccccc2)Oc2ccccc2)cc1 [tert-Butylphenyl diphenyl phosphate]

# output
1. 33
2. 5.93

---

Kindly supply the reported CYP2D6 Efficacy (in parenthesis) values for the records listed here.
- study-system: human CYP2D6 (Homo sapiens, UniProt P10635)
- Sequence (P10635 whole entry): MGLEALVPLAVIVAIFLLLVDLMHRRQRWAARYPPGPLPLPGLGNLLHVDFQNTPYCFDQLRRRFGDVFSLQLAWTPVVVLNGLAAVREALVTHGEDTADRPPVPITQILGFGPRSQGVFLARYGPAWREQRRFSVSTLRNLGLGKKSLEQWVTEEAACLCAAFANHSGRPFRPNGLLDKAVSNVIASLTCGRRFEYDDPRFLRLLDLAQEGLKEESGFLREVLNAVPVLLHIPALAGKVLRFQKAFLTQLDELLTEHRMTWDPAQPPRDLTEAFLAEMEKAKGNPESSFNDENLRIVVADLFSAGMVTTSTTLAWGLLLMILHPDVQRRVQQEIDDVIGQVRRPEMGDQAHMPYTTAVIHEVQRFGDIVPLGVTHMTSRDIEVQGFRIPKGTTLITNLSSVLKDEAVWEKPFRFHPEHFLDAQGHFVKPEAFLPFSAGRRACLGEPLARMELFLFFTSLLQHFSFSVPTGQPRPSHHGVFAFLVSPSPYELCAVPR
- assay-context: human
Structures can show the parent of a compound that is named as a salt.

Before answering, review these 5 worked examples.
compound	CYP2D6 Efficacy (in parenthesis)
O=S(=O)(c1ccc(Cl)cc1)c1cc(Cl)c(Cl)cc1Cl	49.42 ± 19.58 (-34 ± 2) %
CC(C1CC1)C(O)(Cn1cncn1)c1ccc(Cl)cc1 (stereo not drawn)	38.25 ± 2.49 (-72 ± 6) %
N#C/C(=C1/SC[C@@H](c2ccc(Cl)cc2Cl)S1)n1ccnc1 [luliconazole, reference compound]	0.22 ± 0.03 (-105 ± 2) %
CCC1COC(Cn2cncn2)(c2ccc(Cl)cc2Cl)O1 (stereo not drawn)	45.4 ± 9.51 (-42 ± 2) %
Clc1ccccc1C(c1ccccc1)(c1ccccc1)n1ccnc1	46.25 ± 14.89 (-110 ± 18) %

I have 4 compounds here; please give me CYP2D6 Efficacy (in parenthesis) for each one.
1. CC(N/C(=N\C#N)Nc1ccncc1)C(C)(C)C (stereo not drawn) [Pinacidil monohydrate]
2. NC(=O)C(c1ccccc1)(c1ccccc1)[C@@H]1CCN(CCc2ccc3c(c2)CCO3)C1 [Darifenacin hydrobromide]
3. CC(C)C1CCC(Cc2ccc(Cl)cc2)C1(O)Cn1cncn1 (stereo not drawn)
4. O=[N+]([O-])c1ccc2ccc3cccc4ccc1c2c34

# output
25.27 ± 7.04 (-50 ± 9) %
0.41 ± 0.07 (-99 ± 4) %
22.34 ± 2.57 (-107 ± 15) %
33 ± 2.23 (-91 ± 22) %

---

- study-system: human CYP2C9 (Homo sapiens, UniProt P11712)
- assay-comment: biochemical
quantity-name: pIC50
Give bare numbers, as −log10 of the molar value.

compound	pIC50
N#C/C(=C1/SCC(c2ccccc2Cl)S1)n1ccnc1 (stereo not drawn) [Lanoconazole]	5.56
CCOC(=O)C(O)(c1ccc(Cl)cc1)c1ccc(Cl)cc1 [Chlorobenzilate]	5.11

The record that follows has no pIC50 shown yet.
# input Fill in the blank: the reported pIC50 of COc1ccc(S(=O)(=O)N2C(=O)[C@@](c3ccccc3OC)(N3C[C@H](O)C[C@H]3C(=O)N(C)C)c3cc(Cl)ccc32)c(OC)c1 [Nelivaptan] is ____.
# output 4.35

---

- study-system: human CYP2C19 (Homo sapiens)
- Sequence (P33261 whole entry): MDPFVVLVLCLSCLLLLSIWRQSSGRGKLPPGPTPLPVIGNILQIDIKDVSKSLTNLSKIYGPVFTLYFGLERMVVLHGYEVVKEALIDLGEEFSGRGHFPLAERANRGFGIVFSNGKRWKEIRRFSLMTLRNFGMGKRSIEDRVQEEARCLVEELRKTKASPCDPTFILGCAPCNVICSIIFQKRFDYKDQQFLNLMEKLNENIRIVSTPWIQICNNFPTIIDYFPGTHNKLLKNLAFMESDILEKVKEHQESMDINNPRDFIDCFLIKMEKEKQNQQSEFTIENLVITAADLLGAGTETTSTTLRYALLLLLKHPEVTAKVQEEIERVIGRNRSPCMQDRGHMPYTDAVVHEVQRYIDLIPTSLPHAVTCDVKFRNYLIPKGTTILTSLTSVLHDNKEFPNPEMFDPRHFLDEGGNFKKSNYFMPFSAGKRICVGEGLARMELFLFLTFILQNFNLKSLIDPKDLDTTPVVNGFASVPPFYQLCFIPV
- assay-comment: biochemical
- assay-context: CYP2C19 AC50 (half-maximal activity concentration)
quantity-name: AC50 (µM)
Give bare numbers, in µM.

Before answering, review these 5 worked examples.
molecule	study-system	AC50 [µM]
CC(C)N(Cc1ccccc1)C(=O)C(C)(C)C [Butam]	human CYP2C19 (Homo sapiens)	15.1
C[C@]12CC[C@@H]3c4ccc(O)cc4CC[C@H]3[C@@H]1CC[C@@H]2OC(=O)CCC1CCCC1 [Estradiol cypionate]	human CYP2C19 (Homo sapiens)	26
Nc1cc(Cl)cc(Cl)c1 [3,5-Dichloroaniline]	human CYP2C19 (Homo sapiens)	17.7
CCOCCOC(=O)C=Cc1ccc(OC)cc1 [Cinoxate]	human CYP2C19 (Homo sapiens)	29.2
O=C(NC(=O)c1c(F)cccc1F)Nc1cc(Cl)c(F)c(Cl)c1F [Teflubenzuron]	human CYP2C19 (Homo sapiens)	69.2

I have 2 molecules here; please give me AC50 for each one.
1. CNC(=O)Oc1ccccc1C(C)C [Isoprocarb]
2. CN(C)C(=S)SC(=S)N(C)C [Tetramethylthiuram monosulfide]

# output
[63.5, 22.8]

I have 3 molecules here; please give me AC50 for each one.
1. O=C(c1ccccc1)c1ccc(O)cc1 [4-Hydroxybenzophenone]
2. O=[N+]([O-])c1cc(C2CCCCC2)c(O)c([N+](=O)[O-])c1 [Dinex]
3. O=S(=O)(c1ccccc1)c1ccccc1 [Diphenylsulfone]

# output
[31.7, 39.8, 41.1]

---

- study-system: UniProtKB P11712
quantity-name: CYP2C9 AC50 (half-maximal activity concentration)

Before answering, review these 6 worked examples.
molecule	obs-value
CC[N+](C)(CC)CCOC(=O)C1c2ccccc2Oc2ccccc21 [Methantheline bromide]	Inactive
O=C1NC2CCCCN2C12CCN(CCCN1c3ccccc3CCc3ccc(Cl)cc31)CC2 (centres unmarked) [Mosapramine]	Inconclusive inhibitor
C[C@@H]1CC[C@@]2(OC1)O[C@H]1C[C@H]3[C@@H]4CC[C@H]5C[C@@H](O)CC[C@]5(C)[C@H]4CC(=O)[C@]3(C)[C@H]1[C@@H]2C [Hecogenin]	Inactive
O=[N+]([O-])c1cccc2cccnc12 [8-Nitroquinoline]	Inactive
CC(C)CC(O)Cc1ccccc1 (centres unmarked) [4-Methyl-1-phenyl-2-pentanol]	Inconclusive inhibitor
COC(=O)c1ccc(C(=O)OC)c(C(=O)OC)c1 [Trimethyl benzene-1,2,4-tricarboxylate]	Inactive

# input Fill in the blank: the reported CYP2C9 AC50 (half-maximal activity concentration) of Cl.Nc1c2c(nc3c1CCC3)CCCC2.O [Ipidacrine hydrochloride hydrate] is ____.
# output Inactive

---

- study-system: UniProtKB P33261
- assay-comment: biochemical
- assay-context: CYP2C19 AC50 (half-maximal activity concentration)
quantity-name: AC50

Before answering, review these 5 worked examples.
molecule	study-system	AC50
CC(C)N(C(=O)SCC(Cl)=C(Cl)Cl)C(C)C [Tri-allate]	UniProtKB P33261	10.3 µM
CC(COc1ccc(Oc2ccccc2)cc1)Oc1ccccn1 (centres unmarked)	UniProtKB P33261	12.4 µM
C#C[C@]1(OC(C)=O)CC[C@H]2[C@@H]3CCC4=C[C@@H](OC(C)=O)CC[C@@H]4[C@H]3CC[C@@]21C [Ethynodiol diacetate]	UniProtKB P33261	23.7 µM
O=C(C=Cc1ccccc1)OCC=Cc1ccccc1 [3-Phenyl-2-propen-1-yl 3-phenylacrylate]	UniProtKB P33261	31.8 µM
Oc1c(Cl)c(Cl)c(Cl)c(Cl)c1Cl	UniProtKB P33261	52.3 µM

I have 3 molecules here; please give me AC50 for each one.
1. O=C(O)C(c1ccc(Cl)cc1)c1ccc(Cl)cc1
2. O=C(OCCOCCOC(=O)c1ccccc1)c1ccccc1 [Diethylene glycol dibenzoate]
3. CC1(C)[C@H](C(=O)O[C@H](C#N)c2cccc(Oc3ccccc3)c2)[C@@H]1C=C(Br)Br

# output
1: 24.5 µM; 2: 34.1 µM; 3: 8.8 µM

Where do these numbers come from? They come from paper PMC12155096.
